Where these numbers come from: ChEMBL document CHEMBL2434963

Tested on: HeLa
ASSAY: cells
ASSAY_SETUP: Homo sapiens, 48 h
Description: Cytotoxicity against human HeLa cells after 48 hrs by MTT assay
QUANTITY: IC50

CC(=O)N1N=C([C@H]2CC[C@H]3[C@@H]4CCC5=C(Cl)C(=O)C=C[C@]5(C)[C@H]4CC[C@]23C)CC1c1ccccc1[N+](=O)[O-] (stereo partly specified) : > 50 µg/mL
CC(=O)[C@H]1CC[C@H]2[C@@H]3CCC4=CC(=O)CC[C@]4(C)[C@H]3CC[C@]12C : > 50 µg/mL
COc1ccccc1C1CC([C@H]2CC[C@H]3[C@@H]4CCC5=CC(=O)C=C[C@]5(C)[C@H]4CC[C@]23C)=NN1C(C)=O (stereo partly specified) : > 50 µg/mL
CC(=O)N1N=C([C@H]2CC[C@H]3[C@@H]4CCC5=C(Cl)C(=O)C=C[C@]5(C)[C@H]4CC[C@]23C)CC1c1ccc(Cl)cc1 (stereo partly specified) : 26.6 µg/mL
CC(=O)N1N=C([C@H]2CC[C@H]3[C@@H]4CCC5=CC(=O)C=C[C@]5(C)[C@H]4CC[C@]23C)CC1c1ccc([N+](=O)[O-])cc1 (stereo partly specified) : > 50 µg/mL

Field request: IC50 | item: CC(=O)N1N=C([C@H]2CC[C@H]3[C@@H]4CCC5=CC(=O)C=C[C@]5(C)[C@H]4CC[C@]23C)CC1c1ccccc1 (stereo partly specified)
> 50 µg/mL

---

# Lookup of reported IC50 keyed by entry
Tested on: HeLa
ASSAY: cells
ASSAY_SETUP: Homo sapiens, 48 h
Form entry: value (µg/mL) — number only.

// worked examples, IC50 included
CC(=O)N1N=C([C@H]2CC[C@H]3[C@@H]4CCC5=C(Cl)C(=O)C=C[C@]5(C)[C@H]4CC[C@]23C)CC1c1ccccc1 (stereo partly specified) : 13.7
CC(=O)N1N=C([C@H]2CC[C@H]3[C@@H]4CCC5=C(Cl)C(=O)C=C[C@]5(C)[C@H]4CC[C@]23C)CC1c1ccccc1Cl (mixture of isomers) : 12.5

Let's switch to this compound now.
Field request: IC50 | item: O=c1[nH]cc(F)c(=O)[nH]1
0.887

---

Tested on: HeLa
ASSAY: cells
ASSAY_SETUP: Homo sapiens, 48 h
# Lookup of reported IC50 keyed by entry

// worked examples, IC50 included
CC(=O)N1N=C([C@H]2CC[C@H]3[C@@H]4CCC5=C(Cl)C(=O)C=C[C@]5(C)[C@H]4CC[C@]23C)CC1c1ccc([N+](=O)[O-])cc1 (stereo partly drawn) : > 50 mg/L
CC(=O)N1N=C([C@H]2CC[C@H]3[C@@H]4CCC5=CC(=O)C=C[C@]5(C)[C@H]4CC[C@]23C)CC1c1ccccc1[N+](=O)[O-] (stereo partly drawn) : > 50 mg/L

Let's switch to this compound now.
Field request: IC50 | item: COc1ccc(C2CC([C@H]3CC[C@H]4[C@@H]5CCC6=CC(=O)C=C[C@]6(C)[C@H]5CC[C@]34C)=NN2C(C)=O)cc1 (stereo partly drawn)
> 50 mg/L

---

Test system: HepG2
ASSAY: Cytotoxicity against human HepG2 cells after 48 hrs by MTT assay
Type: functional, cell-based
ASSAY_SETUP: HepG2, 48 h
QUANTITY: IC50 (µg/mL)
Form entry: value (µg/mL) — number only.

// worked examples, IC50 included
CC(=O)N1N=C([C@H]2CC[C@H]3[C@@H]4CCC5=C(Cl)C(=O)C=C[C@]5(C)[C@H]4CC[C@]23C)CC1c1ccc(Cl)cc1 (some centres undefined) : 25.3
CC(=O)N1N=C([C@H]2CC[C@H]3[C@@H]4CCC5=C(Cl)C(=O)C=C[C@]5(C)[C@H]4CC[C@]23C)CC1c1ccccc1 (some centres undefined) : 17.3

Let's switch to this compound now.
Field request: IC50 | item: COc1ccc(C2CC([C@H]3CC[C@H]4[C@@H]5CCC6=C(Cl)C(=O)C=C[C@]6(C)[C@H]5CC[C@]34C)=NN2C(C)=O)cc1 (mixture of isomers)
16.9

---

# Lookup of reported IC50 keyed by entry
System: HeLa
ASSAY: cells
ASSAY_SETUP: Homo sapiens, 48 h

CC(=O)N1N=C([C@H]2CC[C@H]3[C@@H]4CCC5=CC(=O)C=C[C@]5(C)[C@H]4CC[C@]23C)CC1c1ccccc1Cl (stereo partly drawn) : > 50 µg/mL

Field request: IC50 | item: CC(=O)N1N=C([C@H]2CC[C@H]3[C@@H]4CCC5=CC(=O)C=C[C@]5(C)[C@H]4CC[C@]23C)CC1c1ccc(Cl)cc1 (stereo partly drawn)
> 50 µg/mL

Field request: IC50 | item: CC(=O)[C@H]1CC[C@H]2[C@@H]3CCC4=C(Cl)C(=O)C=C[C@]4(C)[C@H]3CC[C@]12C
> 50 µg/mL
